experiment: In vitro supersaturation under non-sink conditions (µDISS Profiler, tenfold supersaturation ratio, spray-dried solids); format: physicochemical; settings: freshly spray-dried (SD T0); tenfold supersaturation ratio, phosphate buffer pH 6.5, 37 °C, 60 min
OBSERVATION_TYPE: RAUC (AUC ratio spray-dried/crystalline)

>  <COMPOUND>
CC(=O)N1CCN(c2ccc(OCC3COC(Cn4ccnc4)(c4ccc(Cl)cc4Cl)O3)cc2)CC1 (centres unmarked)

>  <EXPERIMENTAL_RESULT>
1.6

$$$$
>  <COMPOUND>
COc1ccc(Cl)cc1C(=O)NCCc1ccc(S(=O)(=O)NC(=O)NC2CCCCC2)cc1 [Glibenclamide, glibenclamide]

>  <EXPERIMENTAL_RESULT>
4.1

$$$$
>  <COMPOUND>
CC1Cc2ccccc2N1NC(=O)c1ccc(Cl)c(S(N)(=O)=O)c1 (centres unmarked) [Indapamide, indapamide]

>  <EXPERIMENTAL_RESULT>
1.9

$$$$
>  <COMPOUND>
Nc1ccc(S(=O)(=O)Nc2nccs2)cc1

>  <EXPERIMENTAL_RESULT>
1.5

$$$$

Consider now this further compound.
Record request: RAUC (AUC ratio spray-dried/crystalline) value, item Cc1ccccc1N1C(=O)c2cc(S(N)(=O)=O)c(Cl)cc2NC1C (centres unmarked)
1.5

###

experiment: Physical stability study of spray-dried amorphous APIs stored at 75% RH, 25 °C (solid state by Raman, MDSC, PXRD); type: physicochemical; conditions: spray-dried amorphous API, 25 °C
OBSERVATION_TYPE: Stability for 168 Days at 75% RH

>  <COMPOUND>
COc1ccc(Cl)cc1C(=O)NCCc1ccc(S(=O)(=O)NC(=O)NC2CCCCC2)cc1 [Glibenclamide, glibenclamide]

>  <EXPERIMENTAL_RESULT>
Moderate

$$$$
>  <COMPOUND>
C[C@]12CCC(=O)C=C1CC[C@@H]1[C@@H]2[C@@H](O)C[C@@]2(C)[C@H]1CC[C@]2(O)C(=O)CO [Hydrocortisone, hydrocortisone]

>  <EXPERIMENTAL_RESULT>
Moderate

$$$$
>  <COMPOUND>
Cc1ccccc1N1C(=O)c2cc(S(N)(=O)=O)c(Cl)cc2NC1C (stereo not shown)

>  <EXPERIMENTAL_RESULT>
High

$$$$
>  <COMPOUND>
CC(=O)N1CCN(c2ccc(OCC3COC(Cn4ccnc4)(c4ccc(Cl)cc4Cl)O3)cc2)CC1 (stereo not shown)

>  <EXPERIMENTAL_RESULT>
Low

$$$$

Required: Stability for 168 Days at 75% RH, one value per compound below.
1. CC1Cc2ccccc2N1NC(=O)c1ccc(Cl)c(S(N)(=O)=O)c1 (stereo not shown) [Indapamide, indapamide]
2. Nc1ccc(S(=O)(=O)Nc2nccs2)cc1

1: High; 2: Low

Entry NS(=O)(=O)c1cc2c(cc1Cl)NCNS2(=O)=O [Hydrochlorothiazide, hydrochlorothiazide] : reported Stability for 168 Days at 75% RH = ?
Low

###

assay: Physical stability study of spray-dried amorphous APIs stored at 75% RH, 25 °C (solid state by Raman, MDSC, PXRD); assay type: physicochemical; conditions: spray-dried amorphous API, 75% RH at 25 °C
OBSERVATION_TYPE: Crystal Growth

Solved entries:
>  <COMPOUND>
Nc1ccc(S(=O)(=O)Nc2nccs2)cc1 [Sulfathiazole, sulfathiazole]

>  <Crystal Growth>
Rapid

$$$$
>  <COMPOUND>
COc1ccc(Cl)cc1C(=O)NCCc1ccc(S(=O)(=O)NC(=O)NC2CCCCC2)cc1 [Glibenclamide, glibenclamide]

>  <Crystal Growth>
Slow

$$$$
>  <COMPOUND>
NS(=O)(=O)c1cc2c(cc1Cl)NCNS2(=O)=O [Hydrochlorothiazide, hydrochlorothiazide]

>  <Crystal Growth>
Rapid

$$$$
>  <COMPOUND>
C[C@]12CCC(=O)C=C1CC[C@@H]1[C@@H]2[C@@H](O)C[C@@]2(C)[C@H]1CC[C@]2(O)C(=O)CO [Hydrocortisone, hydrocortisone]

>  <Crystal Growth>
Slow

$$$$

Switching to the query record.
# input compound: CC(=O)N1CCN(c2ccc(OCC3COC(Cn4ccnc4)(c4ccc(Cl)cc4Cl)O3)cc2)CC1 (centres unmarked) [Ketoconazole, ketoconazole] ; wanted: its Crystal Growth
Rapid

Just for reference, paper PMC6696415 is where these values come from.
